pIC50 values recorded for CDK2 (human)
pIC50: −log10 of the molar value.

See these solved cases before continuing.
{"columns": ["compound", "pIC50"],
 "data": [
  ["CC(C)c1cnn2c(NCc3ccccc3-c3nnnn3C)nc(O[C@@H]3CCCNC3)nc12", "6.30 to 7.30"],
  ["CC(C)c1cnn2c(NCc3ccccc3-n3cccn3)nc(O[C@@H]3CCCNC3)nc12", "≥ 7.30"],
  ["CC(C)c1cnn2c(NCc3ccccc3-n3cccn3)nc(OC3CCNCC3)nc12", "6.30 to 7.30"]
]}

Lab note: measured pIC50 of CC(C)c1cnn2c(NCc3ccccc3C(N)=O)nc(O[C@@H]3CCCNC3)nc12 was 6.30 to 7.30

pIC50 in this record for CC(C)c1cnn2c(NCc3ccccc3-n3cccn3)nc(OC3C=CCNC3)nc12 (centres undefined) : 6.30 to 7.30

Measured pIC50, CC(C)c1cnn2c(NCc3cccc4ccncc34)nc(O[C@@H]3CCCNC3)nc12 : 6.30 to 7.30

pIC50 measured on CC(C)c1cnn2c(NCc3ccccc3-n3cccn3)nc(NC3CCNC3)nc12 (centres undefined) = 6.30 to 7.30

// CC(C)c1cnn2c(NCc3ccccc3-c3cccs3)nc(O[C@@H]3CCCNC3)nc12 : pIC50 value = ≥ 7.30

// recorded pIC50 for CC(C)c1cnn2c(NCc3cc(F)ccc3-n3cccn3)nc(O[C@@H]3CCCNC3)nc12 : ≥ 7.30

# pIC50 (compound: CC(C)c1cnn2c(NCc3ccccc3-n3cncn3)nc(N[C@@H]3CCCNC3)nc12 ) is ≥ 7.30

pIC50 for CNC1CCN(c2nc(NCc3ccccc3-n3cccn3)n3ncc(C(C)C)c3n2)CC1 is 6.30 to 7.30

// field: pIC50; key: CC(C)c1cnn2c(NCc3ccccc3-c3nnn(C)n3)nc(O[C@@H]3CCCNC3)nc12 ; value = ≥ 7.30

So, CC(C)c1cnn2c(NCc3ccccc3-c3ccccn3)nc(O[C@@H]3CCCNC3)nc12 ? Its pIC50 was 6.30 to 7.30

Sure, the documented pIC50 for COc1ccccc1CNc1nc(OC2CCN(C)CC2)nc2c(C(C)C)cnn12 is 6.30 to 7.30

Query CC(C)c1cnn2c(NCc3ccccc3-n3cncn3)nc(O[C@@H]3CCNC3)nc12 yields pIC50 of ≥ 7.30

response.value for CSc1ccccc1CNc1nc(O[C@@H]2CCCNC2)nc2c(C(C)C)cnn12 (field: pIC50) = 6.30 to 7.30

For CC(C)c1cnn2c(NCc3ccccc3OC(F)F)nc(OC3CCN(C)CC3)nc12 the compound record lists pIC50 as 6.30 to 7.30

Just so you know, measured pIC50 for CC(C)c1cnn2c(NCc3cccc(F)c3-n3cccn3)nc(O[C@@H]3CCCNC3)nc12 came out at ≥ 7.30

pIC50 reading for CNC(=O)c1ccccc1CNc1nc(O[C@@H]2CCCNC2)nc2c(C(C)C)cnn12 : 6.30 to 7.30
